- PROTOCOL TEXT: Metabolic stability in rat hepatocytes assessed as hepatic clearance at 1 uM measured up to 60 mins in presence of NADPH by HPLC-MS/MS analysis
- Format: ADME, cell-based, Hepatocyte
ENDPOINT LABEL: CLhep predicted at 1 µM (mL/min/kg)

INSERT INTO measurements (structure, unit_info, test_result) VALUES
  ('O=C(c1ccc(F)cc1)C1CCN(CCn2c(=O)[nH]c3ccccc3c2=O)CC1', 'mL/min/kg', 25),
  ('Cc1cc(F)cc(C)c1Oc1ccc(C(C)(C)O)cc1-c1cn(C)c(=O)c2cc(-c3cnc(C4CCCC4)[nH]3)oc12', 'mL/min/kg', 17.9);
